Biological target: N-terminal Xaa-Pro-Lys N-methyltransferase 1 (Homo sapiens) (UniProt Q9BV86)
Sequence (Q9BV86 whole entry, looked up): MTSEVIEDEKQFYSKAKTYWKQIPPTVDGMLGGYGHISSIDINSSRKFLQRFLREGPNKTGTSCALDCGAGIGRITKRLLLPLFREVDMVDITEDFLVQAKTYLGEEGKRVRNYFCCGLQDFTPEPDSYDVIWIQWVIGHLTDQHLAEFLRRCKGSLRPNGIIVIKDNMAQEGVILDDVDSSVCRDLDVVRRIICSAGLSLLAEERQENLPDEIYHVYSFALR
Assay: qHTS Assay for Inhibitors of N-terminal methyltransferase 1 (NTMT1): LOPAC validation of the NTMT1 SAHH-coupled ThioGlo3 Assay (AID 1347143);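 further: SAH from peptide methylation measured as thiol fluorescence via SAHH coupling and ThioGlo3; nearly all actives have a fitted effect of over 70% in size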; further: potency means the concentration at half of the fitted maximal effect
Conditions: recombinant NTMT1, SAHH-coupled ThioGlo3 fluorescence; series mostly up to 114 µM
Excerpt: Assay Submitter (PI): Rong Huang Ph.D, Purdue University, West Lafayette, IN 47907 The N-terminal methytransferase 1 is the first methyltransferase that methylates protein alpha-N-amines and plays an important role in regulating cell mitosis, chromatin interactions and DNA repair. […] To address this unmet need, a panel of assay is created and established to enable quantitative high-throughput screening (qHTS) for novel, potent, and selective small molecule NTMT1 inhibitors. […]
Results filed as inconclusive are left out. Active and inactive are the calls of the source. The call rests on the fitted dose curve; in most records, active means well fitted inhibition curve with a large enough effect; inconclusive means small, poorly fitted or top-dose-only effect; inactive means no such curve, though single readings can be large or run the other way.
outcomeMeasure: Potency

The following compounds have reported results that may help.
>  <compound>
Nc1ccc(-c2nc3ccc(-c4nc5ccc(N)cc5[nH]4)cc3[nH]2)cc1

>  <Potency>
56.2 µM (active)

$$$$
>  <compound>
O=C(O)Cc1ccc(O)c(O)c1

>  <Potency>
31.6 µM (active)

$$$$
>  <compound>
O=C(O)C1=CCCN(CCON=C(c2ccccc2)c2ccccc2)C1

>  <Potency>
inactive

$$$$
>  <compound>
NC(N)=N[C@@H](CCC(=O)O)C(=O)O

>  <Potency>
inactive

$$$$

-- ask Enter reported Potency observed with N-terminal Xaa-Pro-Lys N-methyltransferase 1 (Homo sapiens) (UniProt Q9BV86) for `CCCc1c(-c2ccc(O)cc2)nn(-c2ccc(O)cc2)c1-c1ccc(O)cc1`
-- reply inactive

Values compiled from PubChem BioAssay (NCATS).
